# collection of IC50 values tested on Acetylcholinesterase (Homo sapiens, UniProt P22303)
# Sequence (P22303 whole entry): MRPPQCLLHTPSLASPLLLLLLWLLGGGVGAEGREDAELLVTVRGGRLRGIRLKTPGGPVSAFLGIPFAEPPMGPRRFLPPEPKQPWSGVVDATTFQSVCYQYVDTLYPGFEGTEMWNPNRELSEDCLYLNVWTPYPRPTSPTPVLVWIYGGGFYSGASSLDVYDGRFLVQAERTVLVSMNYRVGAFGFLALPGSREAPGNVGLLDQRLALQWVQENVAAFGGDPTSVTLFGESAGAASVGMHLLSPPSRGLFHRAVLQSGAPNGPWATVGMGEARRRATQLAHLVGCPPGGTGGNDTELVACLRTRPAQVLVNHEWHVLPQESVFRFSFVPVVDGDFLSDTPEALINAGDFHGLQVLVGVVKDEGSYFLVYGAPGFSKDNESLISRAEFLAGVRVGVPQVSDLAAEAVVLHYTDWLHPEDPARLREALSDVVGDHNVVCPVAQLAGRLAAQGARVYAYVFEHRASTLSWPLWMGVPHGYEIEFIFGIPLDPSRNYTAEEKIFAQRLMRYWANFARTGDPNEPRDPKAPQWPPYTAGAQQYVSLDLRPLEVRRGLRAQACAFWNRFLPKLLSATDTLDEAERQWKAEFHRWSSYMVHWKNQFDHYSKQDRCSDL
Please reply with the bare figure in µM and do not write the unit itself.

Below, 5 compounds whose answers are already recorded.
C=C(C)[C@H](O)Cc1cc2ccc(=O)oc2cc1O 130
COc1cc(OCC=C(C)C)c2ccc(=O)oc2c1 240
CC(C)(O[C@@H]1O[C@H](CO)[C@@H](O)[C@H](O)[C@H]1O)[C@H]1Cc2cc3ccc(=O)oc3cc2O1 68
CC(C)(O)C(=O)Cc1cc2ccc(=O)oc2cc1O 180
CC(C)=CC(=O)O[C@H]1Cc2cc3ccc(=O)oc3cc2OC1(C)C 390

Name the recorded IC50 for CC1(C)C=Cc2cc3ccc(=O)oc3cc2O1 .
150

Entry CC(C)=CCOc1c2ccoc2cc2oc(=O)ccc12 : reported IC50 = ?
69

Entry CC(C)=CCc1cc2ccc(=O)oc2cc1O has what IC50?
2400

Given the entry CC(C)(O)[C@@H]1Cc2cc3ccc(=O)oc3cc2O1 , report its measured IC50.
67

Item under review: COc1c2occc2cc2ccc(=O)oc12 . Reported IC50?
54
